The measured values listed here are drawn from patent US20210400981A1.

assay.method.text: Ability of the buffer to accept aqueous ozone (kiosk sensors and instrumentation)
Format: physicochemical
test.context: buffer at approximate pH 5.5 to 6, ozonated with the CCT 1.0 kiosk

sample.smiles	ozone in the resulting buffered solution
O=S(=O)(O)CCN1CCOCC1	no ozone
O=C1O[C@H]([C@@H](O)CO)C(O)=C1O	no ozone
O=C(O)CC(O)(CC(=O)O)C(=O)O	did accept ozonation
O=C(O)C(=O)O	did accept ozonation
